- tested_system: α4β2 nAChRs (Rattus norvegicus, UniProt P09483+P12390)
- Sequence (P09483 31-630): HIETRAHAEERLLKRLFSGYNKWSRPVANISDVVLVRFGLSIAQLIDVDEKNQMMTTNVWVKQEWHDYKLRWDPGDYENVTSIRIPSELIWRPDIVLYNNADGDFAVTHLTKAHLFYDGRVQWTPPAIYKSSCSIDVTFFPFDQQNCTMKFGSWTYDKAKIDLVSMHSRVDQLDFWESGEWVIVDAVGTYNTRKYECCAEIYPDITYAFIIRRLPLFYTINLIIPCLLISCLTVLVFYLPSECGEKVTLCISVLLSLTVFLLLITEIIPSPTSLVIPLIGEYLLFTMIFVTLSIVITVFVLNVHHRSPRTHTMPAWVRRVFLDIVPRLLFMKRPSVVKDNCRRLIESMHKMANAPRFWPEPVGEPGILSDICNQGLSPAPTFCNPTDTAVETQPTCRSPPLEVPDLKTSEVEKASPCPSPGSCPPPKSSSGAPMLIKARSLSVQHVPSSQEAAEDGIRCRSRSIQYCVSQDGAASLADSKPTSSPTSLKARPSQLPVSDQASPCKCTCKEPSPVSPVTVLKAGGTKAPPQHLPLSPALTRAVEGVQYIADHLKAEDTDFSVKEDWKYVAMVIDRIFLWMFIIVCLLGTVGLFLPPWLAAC
- Sequence (P12390 25-500): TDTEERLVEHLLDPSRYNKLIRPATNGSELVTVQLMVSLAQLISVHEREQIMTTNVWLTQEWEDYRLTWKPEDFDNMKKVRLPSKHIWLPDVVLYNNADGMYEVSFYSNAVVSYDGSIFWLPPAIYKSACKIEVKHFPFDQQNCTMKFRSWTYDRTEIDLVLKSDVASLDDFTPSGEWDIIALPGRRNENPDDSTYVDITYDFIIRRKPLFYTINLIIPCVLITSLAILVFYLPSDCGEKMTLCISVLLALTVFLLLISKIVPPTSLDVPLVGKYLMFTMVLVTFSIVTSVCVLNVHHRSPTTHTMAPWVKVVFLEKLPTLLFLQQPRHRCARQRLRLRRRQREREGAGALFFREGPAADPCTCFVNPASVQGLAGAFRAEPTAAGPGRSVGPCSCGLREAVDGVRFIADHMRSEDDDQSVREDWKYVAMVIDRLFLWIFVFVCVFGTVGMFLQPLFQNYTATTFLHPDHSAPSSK
- assay_comment: In vitro binding affinity, inhibition of 125I-IEB in rat brain slices (autoradiography), α4β2 sites
- measurement_conditions: p-toluenesulfonate salt
measure_name: pKi
Scale: pKi equals -log10([C]), with [C] in mol/L.

Asked: Find the recorded pKi belonging to FCCCc1cncc(OC[C@@H]2CCCN2)c1 [nifrolidine] and report it.
Given back: 8.54
